Recorded measurements of IC50, one per entry
target: hD4.2 receptor (Homo sapiens, UniProt P21917, DEL265-296); construct: purchased BioSignal Packard Inc., Montreal, Canada; assay: Radioligand binding, dopamine D4 ([3H]YM-09151-2); settings: Table 4; [3H]YM-09151-2 0.06 nM; read-out: Binding affinity, IC50 (nM) D4
Number only, in nM; omit the unit.

>>> print(df.to_string())
                                   compound                            assayed_system  metric  units_of_measure  measured_number
0  COc1ccc(C2(C)C(=O)c3c(N4CCNCC4)cc(Cl)cc3N(Cc3ccccc3Br)C2=O)cc1 (stereo not shown)  hD4.2 receptor (Homo sapiens, UniProt P21917, DEL265-296)    IC50                nM             8880
1  CC1(c2ccc(O)cc2)C(=O)c2c(N3CCNCC3)cc(Cl)cc2N(Cc2ccc(O)cc2)C1=O (stereo not shown)  hD4.2 receptor (Homo sapiens, UniProt P21917, DEL265-296)    IC50                nM             9450
2  CC1(c2ccc(O)cc2)C(=O)c2c(N3CCNCC3)cc(Cl)cc2N(Cc2cccc(N)c2)C1=O (stereo not shown)  hD4.2 receptor (Homo sapiens, UniProt P21917, DEL265-296)    IC50                nM             9410
3  COc1ccc(C2(C)C(=O)c3c(N4CCNCC4)cc(Cl)cc3N(Cc3ccccc3OC)C2=O)cc1 (stereo not shown)  hD4.2 receptor (Homo sapiens, UniProt P21917, DEL265-296)    IC50                nM             9000

Proceed to the following item.
Quick one: IC50 of COc1ccc(C2(C)C(=O)c3c(N4CCNCC4)cc(Cl)cc3N(Cc3nc4ccccc4[nH]3)C2=O)cc1 (stereo not shown) ?
9470

---

Biological target: hD4.2 receptor (Homo sapiens, UniProt P21917, DEL265-296)
Construct: purchased BioSignal Packard Inc., Montreal, Canada
Sequence (P21917 with tags, fused parts or gaps DEL265-296): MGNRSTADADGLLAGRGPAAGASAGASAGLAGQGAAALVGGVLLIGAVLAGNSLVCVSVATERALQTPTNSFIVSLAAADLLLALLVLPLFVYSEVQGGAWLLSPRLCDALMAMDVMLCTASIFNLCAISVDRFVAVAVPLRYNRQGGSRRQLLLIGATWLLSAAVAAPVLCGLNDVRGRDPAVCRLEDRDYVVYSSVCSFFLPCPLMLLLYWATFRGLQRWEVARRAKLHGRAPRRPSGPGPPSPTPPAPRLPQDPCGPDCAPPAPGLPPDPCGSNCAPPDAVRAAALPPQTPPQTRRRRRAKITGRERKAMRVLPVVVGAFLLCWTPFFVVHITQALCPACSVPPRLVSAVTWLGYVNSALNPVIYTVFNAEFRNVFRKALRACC
Assay: Radioligand binding, dopamine D4 ([3H]YM-09151-2)
Conditions: Table 4; [3H]YM-09151-2 0.06 nM; read-out: Binding affinity, IC50 (nM) D4
Metric: IC50 (nM)
Respond with the bare value in nM.

Answered cases to consult:
                                   compound  measured_number
0  CCN1C(=O)C(C)(c2ccc(OC)cc2)C(=O)c2c(N3CCNCC3)cc(Cl)cc21 (stereo not shown)             9570
1  COc1ccc(C2(C)C(=O)c3c(N4CCNCC4)cc(Cl)cc3N(Cc3ccc(-c4ccccc4)cc3)C2=O)cc1 (stereo not shown)             9110
2  COc1ccc(C2(C)C(=O)c3c(N4CCNCC4)cc(Cl)cc3N(Cc3ccc4ccccc4n3)C2=O)cc1 (stereo not shown)             9270
3  COc1ccc(C2(C)C(=O)c3c(N4CCNCC4)cc(Cl)cc3N(Cc3cccnc3)C2=O)cc1 (stereo not shown)             9380
4  COc1ccc(C2(C)C(=O)c3c(N4CCNCC4)cc(Cl)cc3N(Cc3cccc(N)c3)C2=O)cc1 (stereo not shown)             9750

Then this compound:
Which measured IC50 value corresponds to CC1(c2ccc(O)cc2)C(=O)c2c(N3CCNCC3)cc(Cl)cc2N(Cc2ccccc2Br)C1=O (stereo not shown) ?
9000

---

molecular target: 5-HT1a (Homo sapiens); construct: purchased Euroscreen/BioSignal Packard Inc; experiment: Radioligand binding, 5-HT1a ([3H]8-OH-DPAT); conditions: Table 4; [3H]8-OH-DPAT 0.5 nM; read-out: Binding affinity, IC50 (nM) 5-HT1a
Sequence (P08908 whole entry): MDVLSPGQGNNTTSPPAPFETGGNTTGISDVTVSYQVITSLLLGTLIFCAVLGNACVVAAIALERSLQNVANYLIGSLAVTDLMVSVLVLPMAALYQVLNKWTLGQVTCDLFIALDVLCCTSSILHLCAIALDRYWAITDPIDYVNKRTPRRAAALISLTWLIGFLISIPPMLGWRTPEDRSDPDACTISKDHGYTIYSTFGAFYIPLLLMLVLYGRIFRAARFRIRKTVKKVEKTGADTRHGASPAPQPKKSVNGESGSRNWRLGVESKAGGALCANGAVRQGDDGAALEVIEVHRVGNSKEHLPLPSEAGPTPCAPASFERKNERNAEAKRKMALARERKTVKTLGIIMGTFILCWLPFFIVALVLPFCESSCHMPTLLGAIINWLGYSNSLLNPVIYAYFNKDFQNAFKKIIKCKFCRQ
Entries whose IC50 is below 6000 nM take 1; entries at or above 6000 nM take -1.

Would you please look over these solved cases?
In [3]: df
Out[3]:
                                   compound         assayed_system  label_value
0  CC1(c2ccc(O)cc2)C(=O)c2c(N3CCNCC3)cc(Cl)cc2N(Cc2ccccc2Br)C1=O (stereo not shown)  5-HT1a (Homo sapiens)           -1
1  CN1CCN(c2cc(Cl)cc3c2C(=O)C(C)(c2ccccc2)C(=O)N3Cc2ccccc2)CC1 (stereo not shown)  5-HT1a (Homo sapiens)            1
2  CC1(c2ccc(O)cc2)C(=O)c2c(N3CCNCC3)cc(Cl)cc2N(Cc2cccc(Br)c2)C1=O (stereo not shown)  5-HT1a (Homo sapiens)           -1
3  CN1CCN(c2cc(Cl)cc3c2C(=O)C(C)(c2ccc(OCc4ccccc4)c(Br)c2)C(=O)N3Cc2ccccc2)CC1 (stereo not shown)  5-HT1a (Homo sapiens)            1
4  CCN1C(=O)C(C)(c2ccc(OC)cc2)C(=O)c2c(N3CCNCC3)cc(Cl)cc21 (stereo not shown)  5-HT1a (Homo sapiens)           -1

Next:
Determine whether this compound shows IC50 lower than 6000 nM (ties excluded): CN1CCN(c2cc(Cl)cc3c2C(=O)[C@@](C)(c2ccc(N)cc2)C(=O)N3Cc2ccccc2)CC1 (stereo in doubt)
1

---

molecular target: 5-HT7 (Homo sapiens, UniProt P34969); construct: purchased Euroscreen/BioSignal Packard Inc; test: Radioligand binding, 5-HT7 ([3H]LSD); conditions: Table 4; [3H]LSD 3 nM; read-out: Binding affinity, IC50 (nM) 5-HT7
Sequence (P34969 whole entry): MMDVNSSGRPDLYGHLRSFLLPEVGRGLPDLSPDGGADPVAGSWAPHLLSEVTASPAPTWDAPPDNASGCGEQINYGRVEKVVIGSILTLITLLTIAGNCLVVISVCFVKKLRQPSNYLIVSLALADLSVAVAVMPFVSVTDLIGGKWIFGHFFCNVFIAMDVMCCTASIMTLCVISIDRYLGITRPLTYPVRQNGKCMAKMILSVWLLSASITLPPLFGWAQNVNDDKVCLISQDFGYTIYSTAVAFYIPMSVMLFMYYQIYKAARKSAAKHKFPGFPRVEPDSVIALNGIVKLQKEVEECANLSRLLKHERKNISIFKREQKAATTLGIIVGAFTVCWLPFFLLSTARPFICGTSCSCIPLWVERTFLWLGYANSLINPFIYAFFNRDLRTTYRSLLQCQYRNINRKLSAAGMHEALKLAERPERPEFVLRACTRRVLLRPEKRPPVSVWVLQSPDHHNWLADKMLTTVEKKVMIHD
Lab note - cut at 7000 nM for IC50: y if strictly below, n if not.

Just wondering, is IC50 of CC1(c2ccc(O)cc2)C(=O)c2c(N3CCNCC3)cc(Cl)cc2N(Cc2ccccc2)C1=O (racemic) [Example 14] below 7000 nM?
y

# TODO verify IC50 < 7000 nM strictly for this compound: COc1ccc(C2(C)C(=O)c3c(N4CCN(C)CC4)cc(Cl)cc3N(Cc3cccc(N)c3)C2=O)cc1 (stereo not shown) [Example 9]
n

Please let me know if CC1(c2ccc(Cl)cc2)C(=O)c2c(N3CCNCC3)cc(Cl)cc2N(Cc2ccccc2)C1=O (stereo not shown) [Example 19] shows IC50 below 7000 nM.
n

Quick check: IC50 of COc1ccc(C2(C)C(=O)c3c(N4CCN(C)CC4)cc(Cl)cc3N(Cc3ccccc3)C2=O)cc1 (stereo not shown) [Example 1] under 7000 nM?
n

API: query returns whether the compound falls strictly under 7000 nM in IC50. Query: CN1CCN(c2cc(Cl)cc3c2C(=O)C(C)(c2ccccc2)C(=O)N3Cc2ccccc2)CC1 (stereo not shown) [Example 11]
y

Does CC1(c2ccc(O)cc2)C(=O)c2c(N3CCNCC3)cc(Cl)cc2N(Cc2ccccc2Br)C1=O (stereo not shown) [Example 36] have IC50 strictly under 7000 nM?
n

API: query returns whether the compound falls strictly under 7000 nM in IC50. Query: CC1(c2ccc(O)cc2)C(=O)c2c(N3CCNCC3)cc(Cl)cc2N(Cc2cccc(N)c2)C1=O (stereo not shown) [Example 26]
y

---

target: hD3 (Homo sapiens); construct: purchased BioSignal Packard Inc., Montreal, Canada; experiment: Radioligand binding, dopamine D3 ([3H]spiperone); conditions: Table 4; [3H]spiperone 1 nM; read-out: Binding affinity, IC50 (nM) D3
Sequence (P35462 whole entry): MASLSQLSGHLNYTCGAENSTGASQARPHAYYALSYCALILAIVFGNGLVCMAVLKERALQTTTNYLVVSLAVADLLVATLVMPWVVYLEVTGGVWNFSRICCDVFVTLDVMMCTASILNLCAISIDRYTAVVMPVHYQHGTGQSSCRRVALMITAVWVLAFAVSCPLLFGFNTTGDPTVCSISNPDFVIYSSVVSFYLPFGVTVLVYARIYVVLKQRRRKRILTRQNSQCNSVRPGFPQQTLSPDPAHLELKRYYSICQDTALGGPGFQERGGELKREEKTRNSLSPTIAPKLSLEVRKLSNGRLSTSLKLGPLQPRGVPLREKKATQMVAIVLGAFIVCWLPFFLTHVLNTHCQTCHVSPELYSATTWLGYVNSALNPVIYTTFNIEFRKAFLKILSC
Metric: IC50 (nM)
// note: answer is a bare numeric in nM

Some compounds with known IC50 results, for comparison:
In [3]: df
Out[3]:
                                   compound  units_of_measure  measured_number
0  CC1(c2cccc(O)c2)C(=O)c2c(N3CCNCC3)cc(Cl)cc2N(Cc2ccccc2)C1=O (stereo not shown)                nM             9880
1  CN1CCN(c2cc(Cl)cc3c2C(=O)[C@@](C)(c2ccc(N)cc2)C(=O)N3Cc2ccccc2)CC1 (stereo in doubt)                nM             8110
2  COc1ccc(C2(C)C(=O)c3c(N4CCNCC4)cc(Cl)cc3N(Cc3nc4ccccc4[nH]3)C2=O)cc1 (stereo not shown)                nM             9440
3  CC1(c2ccccc2)C(=O)c2c(N3CCNCC3)cc(Cl)cc2N(Cc2ccccc2)C1=O (stereo not shown)                nM             1810

Which IC50 value belongs to CC1(c2ccc(O)cc2)C(=O)c2c(N3CCNCC3)cc(Cl)cc2N(Cc2ccc3ccccc3n2)C1=O (stereo not shown) ?
9160

Fill in: IC50 of CC1(c2ccc(O)cc2)C(=O)c2c(N3CCNCC3)cc(Cl)cc2N(CC2CCCCC2)C1=O (stereo not shown) is ___
8680

For the compound CC1(c2ccc(Br)cc2)C(=O)c2c(N3CCNCC3)cc(Cl)cc2N(Cc2ccccc2)C1=O (stereo not shown) , what IC50 is on record?
9380
